B1: Caulobacter ParB omega fusion; a variant is named by its letters at X, in order, B8GW30 (parent)
chain: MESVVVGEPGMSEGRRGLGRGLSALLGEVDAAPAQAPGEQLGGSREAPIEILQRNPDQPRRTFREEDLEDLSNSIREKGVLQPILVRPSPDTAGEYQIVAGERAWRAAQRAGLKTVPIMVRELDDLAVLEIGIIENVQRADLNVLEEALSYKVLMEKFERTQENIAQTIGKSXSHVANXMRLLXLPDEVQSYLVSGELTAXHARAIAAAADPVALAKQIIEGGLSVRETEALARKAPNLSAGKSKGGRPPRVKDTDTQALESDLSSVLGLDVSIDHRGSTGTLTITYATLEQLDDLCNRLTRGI

Variants of: B1
Experiment: one-hybrid fitness for binding parS DNA (scaled: cognate 1, non-cognate 0); higher = stronger binding
Settings: with parS DNA site
Over roughly 81,000 sequences, “one-hybrid fitness for binding parS DNA” has its median near -0.17; the highest 2% begin near 0.51. The sample holds the highest values, similar sequences and a random draw of the others, so the mix is not that of the screen.
testReadout: one-hybrid fitness for binding parS DNA

1. NTSA ≤ 0.2
2. RGSA 0.399
3. RAKN 0.462
4. RPWA ≤ 0.2
5. RAVT 0.77
6. DTSA ≤ 0.2
7. RAWA 0.598
8. RICF 0.282
9. HEGL ≤ 0.2
10. RQMA 0.596
11. RAVQ 0.23
12. TWPL ≤ 0.2
13. VQTR ≤ 0.2
14. RWWA 0.254
15. TAMD ≤ 0.2
16. RIVF 0.378
17. RLWA 0.648
18. RIVG 0.946
19. NYMG ≤ 0.2
20. RISC 0.969
21. PVNW ≤ 0.2
22. VYHP ≤ 0.2
23. KWDD ≤ 0.2
24. RIRF 0.247
25. VEHR ≤ 0.2
26. RIDK ≤ 0.2
27. GTFW ≤ 0.2
28. RMWA 0.634
29. RWSA 0.429
30. FWAR ≤ 0.2
31. CMEW ≤ 0.2
32. ANRV ≤ 0.2
33. SQSD ≤ 0.2
34. RICP ≤ 0.2
35. NASA ≤ 0.2
36. HRKN ≤ 0.2
37. VQYL ≤ 0.2
38. FTYI ≤ 0.2
39. RIRQ ≤ 0.2
40. RAKD ≤ 0.2
41. RIDQ ≤ 0.2
42. DQLR ≤ 0.2
43. RTSA 0.591
44. PQLA ≤ 0.2
45. RICC 0.92
46. LNPP ≤ 0.2
